Cited source for all entries: PubChem BioAssay (Tox21)

Molecular target: D(2) dopamine receptor (Homo sapiens)
Assay: Dopamine D2 receptor (DRD2) small molecule agonists, cell-based qHTS assay (AID 1963594); further: nearly all actives have a fitted effect of over 35% in size
Details: HEK293-DRD2 cAMP HTRF, agonist mode, 30 min; series mostly up to 92.4 µM
Inconclusive results are not listed. The source made the active and inactive calls. The call rests on the fitted dose curve.
readout.kind: activation

query: # query: activation of entry CC(C)(O)C#N
result: inactive

query: Next compound: O=C(Cl)OCc1ccccc1
result: inactive

query: Next compound: CN(C)C(=O)Nc1ccc(Cl)cc1
result: inactive

====

Target: Beta-2 adrenergic receptor (Homo sapiens) (UniProt P07550)
Sequence (P07550 whole entry, looked up): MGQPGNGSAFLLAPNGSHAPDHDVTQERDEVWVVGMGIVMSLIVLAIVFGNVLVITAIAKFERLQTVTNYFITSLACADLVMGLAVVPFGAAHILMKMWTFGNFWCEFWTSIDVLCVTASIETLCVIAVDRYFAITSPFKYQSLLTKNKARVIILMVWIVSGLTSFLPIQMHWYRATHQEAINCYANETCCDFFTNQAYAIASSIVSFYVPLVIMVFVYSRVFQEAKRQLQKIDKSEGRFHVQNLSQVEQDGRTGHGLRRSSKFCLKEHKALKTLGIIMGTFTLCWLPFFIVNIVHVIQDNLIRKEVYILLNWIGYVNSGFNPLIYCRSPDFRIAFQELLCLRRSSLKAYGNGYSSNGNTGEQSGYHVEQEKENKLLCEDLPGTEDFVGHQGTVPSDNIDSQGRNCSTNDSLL
Test: Adrenergic beta2 receptor (ADRB2) small molecule agonists, cell-based qHTS assay (AID 1963593)
Details: CHO-ADRB2 cells, cAMP HTRF, 30 min; series mostly up to 92.4 µM
Records with an inconclusive call do not appear. Calls of active or inactive are those of the source. The call rests on the fitted dose curve.
The categories you may choose from are TRUE for active, FALSE for inactive

query: Field: outcome | Entry: CC(C)NC(C)C
result: FALSE

query: Next molecule: CCCCCCCCC(=O)NCc1ccc(O)c(OC)c1
result: FALSE

query: Next molecule: O=S(=O)(O)O
result: FALSE

query: Next molecule: Nc1nc(N)nc(NC2CC2)n1
result: FALSE

query: Next molecule: Cc1ccc(N=C=O)cc1N=C=O
result: FALSE

query: Next molecule: CCCCCCCCCCCCCC[P+](CCCCCC)(CCCCCC)CCCCCC
result: FALSE

query: Next molecule: CC(=O)/C=C/c1ccccc1
result: FALSE

query: Next molecule: CN(C)NC(=O)CCC(=O)O
result: FALSE

query: Next molecule: [CH3][Sn]([Cl])([Cl])[Cl]
result: FALSE

query: Next molecule: N#CCNCC#N
result: FALSE

query: Next molecule: C1CC2OC2CC1C1CO1 (configuration not stated)
result: FALSE

query: Next molecule: CCCCCCCCCl
result: FALSE

query: Next molecule: CC(=O)[O][Hg][c]1ccccc1
result: TRUE

query: Next molecule: Cc1ccc2ccccc2c1
result: FALSE

query: Next molecule: CC1(C)C(=O)NC(=O)NC1=O
result: FALSE

query: Next molecule: c1ccc2c(c1)Oc1ccccc1O2
result: FALSE

query: Next molecule: C=CCOC(N)=O
result: FALSE

query: Next molecule: C[C@]12CC[C@H]3[C@@H](CC[C@@]45O[C@@H]4C(O)=C(C#N)C[C@]35C)[C@@H]1CC[C@@H]2O
result: FALSE

query: Next molecule: CCCCCCCCCCCOC(=O)c1ccccc1C(=O)OCCCCCCCCCCC
result: FALSE

query: Next molecule: O=[N+]([O-])O[C@H]1CO[C@H]2[C@@H]1OC[C@H]2O[N+](=O)[O-]
result: FALSE

query: Next molecule: CCCCCBr
result: FALSE

query: Next molecule: CN(C)CCc1ccc(O)cc1
result: FALSE
